pKi: −log10 of the molar value.
Record set: pKi | C-C chemokine receptor type 3 (Homo sapiens) | literature, multiple sources.

smiles_string=Cc1cc(C(=O)NC2CCC2)cc(NC(=O)[C@H]2CCC(=O)N2C2CCN(Cc3ccc(Cl)c(C)c3)CC2)n1 value_observed=8.38

Name the recorded pKi for Cc1cc(C(=O)N2CCN(S(=O)(=O)c3cc(C#N)ccc3Oc3cc(Cl)cc(Cl)c3)CC2)n(C)n1 .
< 5.30

Name the recorded pKi for [2H]c1c([2H])c(Oc2cc(Cl)cc(Cl)c2)c(S(=O)(=O)N2CCC(NC(=O)NCCN3C([2H])([2H])C([2H])([2H])OC([2H])([2H])C3([2H])[2H])CC2)c([2H])c1C#N .
≥ 7.30
